# Lookup of reported HEK-Blue activity, No BP, DF-100,000 keyed by entry
Molecular target: T1, IL-18 receptors on HEK-Blue IL-18 reporter cells (UniProt Q13478 19-541; O95256 20-599, limits assumed); further: unit not given here
T1 sequence (looked up) 1: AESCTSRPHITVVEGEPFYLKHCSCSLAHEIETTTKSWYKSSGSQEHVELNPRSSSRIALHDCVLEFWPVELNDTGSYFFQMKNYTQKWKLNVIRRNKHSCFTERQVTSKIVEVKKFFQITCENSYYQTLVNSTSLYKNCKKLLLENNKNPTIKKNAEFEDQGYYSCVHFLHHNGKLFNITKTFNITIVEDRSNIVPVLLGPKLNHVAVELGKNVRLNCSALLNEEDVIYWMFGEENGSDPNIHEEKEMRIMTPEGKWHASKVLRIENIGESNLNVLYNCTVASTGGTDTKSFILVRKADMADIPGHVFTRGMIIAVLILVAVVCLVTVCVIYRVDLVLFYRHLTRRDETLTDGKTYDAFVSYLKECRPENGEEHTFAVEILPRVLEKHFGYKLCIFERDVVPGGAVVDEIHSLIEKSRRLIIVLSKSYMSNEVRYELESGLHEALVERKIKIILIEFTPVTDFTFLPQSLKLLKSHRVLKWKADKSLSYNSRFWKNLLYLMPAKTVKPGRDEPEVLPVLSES
T1 sequence (looked up) 2: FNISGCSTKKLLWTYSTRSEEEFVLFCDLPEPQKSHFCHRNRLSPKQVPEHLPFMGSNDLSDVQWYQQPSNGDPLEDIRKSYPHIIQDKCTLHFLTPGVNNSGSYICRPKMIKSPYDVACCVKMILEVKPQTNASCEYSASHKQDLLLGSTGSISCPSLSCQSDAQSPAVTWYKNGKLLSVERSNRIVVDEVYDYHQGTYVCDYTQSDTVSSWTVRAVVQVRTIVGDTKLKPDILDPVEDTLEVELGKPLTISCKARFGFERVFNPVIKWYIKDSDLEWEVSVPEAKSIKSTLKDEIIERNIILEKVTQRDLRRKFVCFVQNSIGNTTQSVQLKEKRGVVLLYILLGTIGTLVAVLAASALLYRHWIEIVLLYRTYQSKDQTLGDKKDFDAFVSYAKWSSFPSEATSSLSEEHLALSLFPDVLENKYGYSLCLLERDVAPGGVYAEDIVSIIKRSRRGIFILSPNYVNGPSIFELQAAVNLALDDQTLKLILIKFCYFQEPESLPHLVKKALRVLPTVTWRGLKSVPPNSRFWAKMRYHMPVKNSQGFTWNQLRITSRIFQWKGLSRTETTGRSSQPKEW
Test: cell-based or functional assay

Binder	HEK-Blue activity, No BP, DF-100,000
IL-18 variant K53H, S55M (ligand) YFGKLESKLSVIRNLNDQVLFIDQGNRPLFEDMTDSDMRDNAPRTIFIISMYHDMQPRGMAVTISVKSEKISTLSSENKIISFKEMNPPDNIKDTKSDIIFFQRSVPGHDNKMQFESSSYEGYFLASEKERDLFKLILKKEDELGDRSIMFTVQNED	0.1
IL-18 variant D23G, K53Y, S55Y (ligand) YFGKLESKLSVIRNLNDQVLFIGQGNRPLFEDMTDSDMRDNAPRTIFIISMYYDYQPRGMAVTISVKSEKISTLSSENKIISFKEMNPPDNIKDTKSDIIFFQRSVPGHDNKMQFESSSYEGYFLASEKERDLFKLILKKEDELGDRSIMFTVQNED	0.1
IL-18 variant K53H, S55H, N87D, H109I (ligand) YFGKLESKLSVIRNLNDQVLFIDQGNRPLFEDMTDSDMRDNAPRTIFIISMYHDHQPRGMAVTISVKSEKISTLSSENKIISFKEMDPPDNIKDTKSDIIFFQRSVPGIDNKMQFESSSYEGYFLASEKERDLFKLILKKEDELGDRSIMFTVQNED	0.1
IL-18 variant K53H, S55G (ligand) YFGKLESKLSVIRNLNDQVLFIDQGNRPLFEDMTDSDMRDNAPRTIFIISMYHDGQPRGMAVTISVKSEKISTLSSENKIISFKEMNPPDNIKDTKSDIIFFQRSVPGHDNKMQFESSSYEGYFLASEKERDLFKLILKKEDELGDRSIMFTVQNED	0.1

Lookup: Quote HEK-Blue activity, No BP, DF-100,000 reported for IL-18 variant S36F, N41E, K53W (ligand) YFGKLESKLSVIRNLNDQVLFIDQGNRPLFEDMTDFDMRDEAPRTIFIISMYWDSQPRGMAVTISVKSEKISTLSSENKIISFKEMNPPDNIKDTKSDIIFFQRSVPGHDNKMQFESSSYEGYFLASEKERDLFKLILKKEDELGDRSIMFTVQNED please.
Found: 0.1
